- Test system: Ps. aeruginosa IFO-3445
- procedure-text: Minimum inhibitory concentration (MIC), Heart Infusion agar
- Type: cell-based
- condition-summary: Pseudomonas aeruginosa, IFO3445; Ps. aeruginosa IFO-3445; 10^6 cells/ml; 20 hours, 37° C.; read-out: minimum inhibitory concentration (MIC)
metric-name: MIC (µg/mL)

Please indicate MIC recorded for CCN1CCN(C(=O)NC(C(=O)N[C@]2(OC)C(=O)N3C(C(=O)O)=C(CSc4nnnn4C)CS[C@@H]32)C2=CCC=CC2)C(=O)C1=O (stereo partly drawn)
12.5

Please supply the value of reported MIC for the item CCN1CCN(C(=O)NC(C(=O)N[C@]2(OC)C(=O)N3C(C(=O)O)=C(CSc4nnnn4CCN)CS[C@@H]32)c2cccs2)C(=O)C1=O (stereo partly drawn)
12.5

Return value of MIC for input CCN1CCN(C(=O)NC(C(=O)N[C@]2(OC)C(=O)N3C(C(=O)O)=C(CSc4nnnn4CC(=O)NO)CS[C@@H]32)c2cccs2)C(=O)C1=O (stereo partly drawn) , no commentary.
12.5

---

- System: Ps. aeruginosa IFO-3445
- procedure-text: Minimum inhibitory concentration (MIC), Heart Infusion agar
- Format: cell-based
- condition-summary: Pseudomonas aeruginosa, IFO3445; Ps. aeruginosa IFO-3445; 10^6 cells/ml; 20 hours, 37° C.; read-out: minimum inhibitory concentration (MIC)
metric-name: MIC (µg/mL)

Write down measured MIC (Ps. aeruginosa IFO-3445) for this compound. CCN1CCN(C(=O)NC(C(=O)N[C@]2(OC)C(=O)N3C(C(=O)O)=C(CSc4nnc(C)s4)CS[C@@H]32)c2csc(N)n2)C(=O)C1=O (stereo partly drawn)
25

[I] CCN1CCN(C(=O)NC(C(=O)N[C@]2(OC)C(=O)N3C(C(=O)O)=C(CSc4nnnn4CC(C)=O)CS[C@@H]32)c2cccs2)C(=O)C1=O (stereo partly drawn)
[II] CCN1CCN(C(=O)NC(C(=O)N[C@]2(OC)C(=O)N3C(C(=O)O)=C(CSc4nnnn4C)CS[C@@H]32)c2ccco2)C(=O)C1=O (stereo partly drawn)
Endpoint returns whichever of I and II has the numerically higher MIC. // respond with label for picked entry
I

---

- Tested on: Ser. marcescens W-35
- procedure-text: Minimum inhibitory concentration (MIC), Heart Infusion agar
- Assay type: cell-based
- condition-summary: Serratia marcescens, W35, 20 h, Ser. marcescens W-35; 10^6 cells/ml; 20 hours, 37° C. (Table 1); read-out: minimum inhibitory concentration (MIC)
metric-name: MIC (µg/mL)

Indicate its recorded MIC; the compound in question is CCN1CCN(C(=O)NC(C(=O)N[C@]2(OC)C(=O)N3C(C(=O)O)=C(CSc4nnnn4CC(=O)O)CS[C@@H]32)c2cccs2)C(=O)C1=O (stereo partly drawn)
100

[P] CCN1CCN(C(=O)NC(C(=O)N[C@]2(OC)C(=O)N3C(C(=O)O)=C(CSc4nnnn4CCN(C)C)CS[C@@H]32)c2cccs2)C(=O)C1=O (stereo partly drawn)
[Q] CCN1CCN(C(=O)NC(C(=O)N[C@]2(OC)C(=O)N3C(C(=O)O)=C(CSc4nnnn4CC(C)=NO)CS[C@@H]32)c2cccs2)C(=O)C1=O (stereo partly drawn)
Select one. Lower MIC: P or Q Please respond with the label that marks your chosen entry.
Q

---

- System: Acinetobacter caloaceticus A-6
- procedure-text: Minimum inhibitory concentration (MIC), Heart Infusion agar
- Type: cell-based
- condition-summary: A6; Acinetobacter caloaceticus A-6; 10^6 cells/ml; 20 hours, 37° C.; read-out: minimum inhibitory concentration (MIC)
metric-name: MIC (µg/mL)

Recorded MIC, per entry:
Give MIC for the following compound: CCN1CCN(C(=O)NC(C(=O)N[C@]2(OC)C(=O)N3C(C(=O)O)=C(CSc4nnn(CCN(C)C)n4)CS[C@@H]32)c2cccs2)C(=O)C1=O (stereo partly shown)
25

For the compound CCN1CCN(C(=O)NC(C(=O)N[C@]2(OC)C(=O)N3C(C(=O)O)=C(CSc4nnnn4CC(=O)O)CS[C@@H]32)c2cccs2)C(=O)C1=O (stereo partly shown) , give its measured MIC value.
25

Supply measured MIC of CCN1CCN(C(=O)NC(C(=O)N[C@]2(OC)C(=O)N3C(C(=O)O)=C(CSc4nnnn4CCN(C)C)CS[C@@H]32)c2cccs2)C(=O)C1=O (stereo partly shown) in your reply.
12.5

Identify the reported MIC for the following entry. CCN1CCN(C(=O)NC(C(=O)N[C@]2(OC)C(=O)N3C(C(=O)O)=C(CSc4nnnn4CC(C)=O)CS[C@@H]32)c2cccs2)C(=O)C1=O (stereo partly shown)
25

Report measured MIC; entry is CCN1CCN(C(=O)NC(C(=O)N[C@]2(OC)C(=O)N3C(C(=O)O)=C(CSc4nnnn4C)CS[C@@H]32)c2csc(N)n2)C(=O)C1=O (stereo partly shown)
25

[I] CCN1CCN(C(=O)NC(C(=O)N[C@]2(OC)C(=O)N3C(C(=O)O)=C(CSc4nnnn4CC(C)=NO)CS[C@@H]32)c2cccs2)C(=O)C1=O (stereo partly shown)
[II] CCN1CCN(C(=O)N[C@@H](C(=O)N[C@]2(OC)C(=O)N3C(C(=O)O)=C(COC(C)=O)CS[C@@H]32)c2cccs2)C(=O)C1=O
[III] CCN1CCN(C(=O)NC(C(=O)N[C@]2(OC)C(=O)N3C(C(=O)O)=C(CSc4nnnn4CC(N)=O)CS[C@@H]32)c2cccs2)C(=O)C1=O (stereo partly shown)
Could you please order the items by MIC, going from the lowest number to the highest? Write the labels out in the order the request specifies.
III, I, II

[P] C=Cn1nnnc1SCC1=C(C(=O)O)N2C(=O)[C@](NC(=O)C(NC(=O)N3CCN(CC)C(=O)C3=O)c3cccs3)(OC)[C@H]2SC1 (stereo partly shown)
[Q] CCN1CCN(C(=O)NC(C(=O)N[C@]2(OC)C(=O)N3C(C(=O)O)=C(CSc4nnnn4C)CS[C@@H]32)C2=CCC=CC2)C(=O)C1=O (stereo partly shown)
Which numeric MIC is bigger, that of P or that of Q ? Mark your answer with the label of the selected entry.
P
(P: 12.5 µg/mL, Q: 6.25 µg/mL)

[1] CCN1CCN(C(=O)NC(C(=O)N[C@]2(OC)C(=O)N3C(C(=O)O)=C(CSc4nnnn4C)CS[C@@H]32)c2ccco2)C(=O)C1=O (stereo partly shown)
[2] CCN1CCN(C(=O)NC(C(=O)N[C@]2(OC)C(=O)N3C(C(=O)O)=C(CSc4nnc(C)s4)CS[C@@H]32)c2csc(N)n2)C(=O)C1=O (stereo partly shown)
Decide: 1 or 2 , by lowest recorded MIC. Reply briefly: the label of your chosen item.
1

---

- Tested on: Ps. aeruginosa IFO-3445
- procedure-text: Minimum inhibitory concentration (MIC), Heart Infusion agar
- Format: cell-based
- condition-summary: Pseudomonas aeruginosa, IFO3445; Ps. aeruginosa IFO-3445; 10^6 cells/ml; 20 hours, 37° C.; read-out: minimum inhibitory concentration (MIC)
metric-name: MIC (µg/mL)

Look up and report measured MIC (Ps. aeruginosa IFO-3445) for the following molecule: CCN1CCN(C(=O)NC(C(=O)N[C@]2(OC)C(=O)N3C(C(=O)O)=C(CSc4nnnn4CC(=O)O)CS[C@@H]32)c2cccs2)C(=O)C1=O (stereo partly shown)
25

Report its MIC with Ps. aeruginosa IFO-3445 as the test system: CCN1CCN(C(=O)NC(C(=O)N[C@]2(OC)C(=O)N3C(C(=O)O)=C(CSc4nnnn4C)CS[C@@H]32)c2csc(N)n2)C(=O)C1=O (stereo partly shown)
12.5

Report value: MIC, system: Ps. aeruginosa IFO-3445, molecule: CCN1CCN(C(=O)NC(C(=O)N[C@]2(OC)C(=O)N3C(C(=O)O)=C(CSc4nnnn4CC(N)=O)CS[C@@H]32)c2ccco2)C(=O)C1=O (stereo partly shown)
12.5

Write MIC of CCN1CCN(C(=O)NC(C(=O)N[C@]2(OC)C(=O)N3C(C(=O)O)=C(CSc4nnnn4C)CS[C@@H]32)c2cccs2)C(=O)C1=O (stereo partly shown) [drawing 22] ; system used: Ps. aeruginosa IFO-3445
12.5

[P] CCN1CCN(C(=O)NC(C(=O)N[C@]2(OC)C(=O)N3C(C(=O)O)=C(CSc4nnn(CCN(C)C)n4)CS[C@@H]32)c2cccs2)C(=O)C1=O (stereo partly shown)
[Q] CCN1CCN(C(=O)NC(C(=O)N[C@]2(OC)C(=O)N3C(C(=O)O)=C(CSc4nnnn4CCO)CS[C@@H]32)c2ccco2)C(=O)C1=O (stereo partly shown)
[R] CCN1CCN(C(=O)NC(C(=O)N[C@]2(OC)C(=O)N3C(C(=O)O)=C(CSc4nnnn4CC(C)=NO)CS[C@@H]32)c2cccs2)C(=O)C1=O (stereo partly shown)
Please list these molecules in decreasing order of MIC. List the labels in the requested order.
P, R, Q
(P: 50 µg/mL, R: 25 µg/mL, Q: 12.5 µg/mL)

The reported numbers originate from patent US4321265A.
